// provenance: ChEMBL document CHEMBL1201862

- Test system: SF-295
- TEST: NCI tumour cell line growth inhibition, 48 h
The source made the active and inactive calls. Cut-off read from the data, not from the text of the source: active = GI50 up to about 1.1 µM and inactive = higher.
Reported GI50 by item:

Please fill in: GI50 reported for `[O-]c1c2c(nn1-c1ccccc1)c1ccccc1c[n+]2Cc1ccccc1` = > 100 µM (inactive)

Further cases:
Please fill in: GI50 reported for `C=CCN1C(=O)C(=O)N(CC=C)C(=O)C1=O` = > 100 µM (inactive)

====

Reported GI50 by item:
- Test system: DMS-114
- TEST: NCI tumour cell line growth inhibition, 48 h
The source made the active and inactive calls. Rule as the data show it: active = GI50 up to about 1.1 µM and inactive = higher.

Solved entries:
Field GI50 (system: DMS-114) for entry `O/N=C(\c1ccccc1)N1CCCCC1` = > 100 µM (inactive)

Field GI50 (system: DMS-114) for entry `CC(C)(C)C1=CC(=C2C(=O)C(=O)c3ccccc3C2=O)C=C(C(C)(C)C)C1=O` = 31.3 µM (inactive)

Field GI50 (system: DMS-114) for entry `CN1CCN(c2nc(N)c(Br)c(Cl)n2)CC1` = > 100 µM (inactive)

Further cases:
Field GI50 (system: DMS-114) for entry C1OC1CN1CCN(CC2CO2)CC1 (stereo not drawn) = 12.8 µM (inactive)

Field GI50 (system: DMS-114) for entry `C#Cc1ccccc1N1C(=O)C=CC1=O` = > 100 µM (inactive)

Field GI50 (system: DMS-114) for entry `Cc1ccc(C2=NO[C@@H]3C(=O)N(c4ccc(Cc5ccc(N6C(=O)[C@H]7C(c8ccc(C)cc8)=NO[C@H]7C6=O)cc5)cc4)C(=O)[C@H]23)cc1` = > 100 µM (inactive)

Field GI50 (system: DMS-114) for entry `CN(C)CCC[N+]1=Nc2cccc3cccc(c23)N1` = 60.3 µM (inactive)

Field GI50 (system: DMS-114) for entry `O=C1NC2=C(CCCCC/C2=N\O)C12CCCCCC2` = > 100 µM (inactive)

Field GI50 (system: DMS-114) for entry COc1cc(O)c2c(c1C)C(C)(O)c1c(C)coc1C2=O (stereo not drawn) = > 100 µM (inactive)

Field GI50 (system: DMS-114) for entry `CC(C)C(=O)N[C@@H](C)C(=O)N(Cc1ccc2ccccc2c1)N=O` = 33.7 µM (inactive)

Field GI50 (system: DMS-114) for entry C[N+](C)(C)CC1CCCCC1=O (stereo not drawn) = 36.9 µM (inactive)

Field GI50 (system: DMS-114) for entry `CCCCCCCCCCCCCCCCCCOP(=O)([O-])OCC[N+](C)(C)C` = 13.6 µM (inactive)

Field GI50 (system: DMS-114) for entry `C=CCN1C(=O)C(=O)N(CC=C)C(=O)C1=O` = > 100 µM (inactive)

Field GI50 (system: DMS-114) for entry `ClCCCN1CCN(CCCl)CC1` = 28.9 µM (inactive)

Field GI50 (system: DMS-114) for entry `O=C(/C=C/c1ccccc1)CC(=O)CCC(=O)Nc1ccc(Cl)cc1` = 57 µM (inactive)
